All figures here come from ChEMBL document CHEMBL1157211.

Biological target: Fatty-acid amide hydrolase 1 (Rattus norvegicus, UniProt P97612)
Sequence (P97612 whole entry): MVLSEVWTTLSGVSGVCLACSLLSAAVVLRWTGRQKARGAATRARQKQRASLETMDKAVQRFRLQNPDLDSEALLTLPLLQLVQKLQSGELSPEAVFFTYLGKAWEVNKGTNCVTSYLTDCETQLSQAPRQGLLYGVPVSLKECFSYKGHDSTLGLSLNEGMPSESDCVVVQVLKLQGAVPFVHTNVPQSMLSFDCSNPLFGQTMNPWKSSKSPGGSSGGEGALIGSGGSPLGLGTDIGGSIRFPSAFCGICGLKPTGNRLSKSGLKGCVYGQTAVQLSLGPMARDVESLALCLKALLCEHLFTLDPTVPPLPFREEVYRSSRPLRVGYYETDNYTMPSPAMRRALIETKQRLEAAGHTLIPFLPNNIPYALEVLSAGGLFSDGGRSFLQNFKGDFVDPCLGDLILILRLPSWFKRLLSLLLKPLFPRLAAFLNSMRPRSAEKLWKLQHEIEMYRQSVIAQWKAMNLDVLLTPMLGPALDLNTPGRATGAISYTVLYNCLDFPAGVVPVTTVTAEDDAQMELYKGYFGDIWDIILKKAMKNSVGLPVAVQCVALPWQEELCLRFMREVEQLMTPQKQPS
IC50 values, listed per item
Numeric only. Scale: nM

Solved entries:
1) CN(C)C(=O)n1nnc(CNC(=O)c2cccc(-c3ccccc3)c2)n1 | 23
2) CN(C)C(=O)n1nnnc1CNC(=O)CCCCCCc1ccccc1 | 3.7
3) CN(C)C(=O)n1nnnc1CNC(=O)c1cccc(-c2ccccc2)c1 | 32
4) CN(C)C(=O)n1nnnc1CCc1ccccc1 | 5.4
5) CN(C)C(=O)n1nnnc1CNC(=O)CCCCCCCc1ccccc1 | 10

// lookup IC50 for CN(C)C(=O)n1nnnc1CNC(=O)c1ccc(N=[N+]=[N-])c(I)c1
23

Follow-up item: CN(C)C(=O)n1nnc(CNC(=O)CCCCCCCc2ccccc2)n1
3.2

Follow-up item: CN(C)C(=O)n1nnc(Cc2ccc(-c3ccccc3)cc2)n1
33

###

tested on: Monocyte; assay: Inhibition of anandamide uptake in human monocytes; type: functional, cell-based
measurement type: pIC50
Field pIC50 (float): negative decimal logarithm of the concentration in molar.

// lookup pIC50 for C=CCOc1ccc(CN(C/C=C/c2ccccc2)CCCC)cc1
7.05

###

molecular target: Diacylglycerol lipase-alpha (Homo sapiens); test: Inhibition of human recombinant DAGLalpha mediated sn-1-[14C]oleoyl-2-arachidonoyl-glycerol hydrolysis to 2-AG overexpressed in COS cells after 20 mins
Sequence (Q9Y4D2 whole entry): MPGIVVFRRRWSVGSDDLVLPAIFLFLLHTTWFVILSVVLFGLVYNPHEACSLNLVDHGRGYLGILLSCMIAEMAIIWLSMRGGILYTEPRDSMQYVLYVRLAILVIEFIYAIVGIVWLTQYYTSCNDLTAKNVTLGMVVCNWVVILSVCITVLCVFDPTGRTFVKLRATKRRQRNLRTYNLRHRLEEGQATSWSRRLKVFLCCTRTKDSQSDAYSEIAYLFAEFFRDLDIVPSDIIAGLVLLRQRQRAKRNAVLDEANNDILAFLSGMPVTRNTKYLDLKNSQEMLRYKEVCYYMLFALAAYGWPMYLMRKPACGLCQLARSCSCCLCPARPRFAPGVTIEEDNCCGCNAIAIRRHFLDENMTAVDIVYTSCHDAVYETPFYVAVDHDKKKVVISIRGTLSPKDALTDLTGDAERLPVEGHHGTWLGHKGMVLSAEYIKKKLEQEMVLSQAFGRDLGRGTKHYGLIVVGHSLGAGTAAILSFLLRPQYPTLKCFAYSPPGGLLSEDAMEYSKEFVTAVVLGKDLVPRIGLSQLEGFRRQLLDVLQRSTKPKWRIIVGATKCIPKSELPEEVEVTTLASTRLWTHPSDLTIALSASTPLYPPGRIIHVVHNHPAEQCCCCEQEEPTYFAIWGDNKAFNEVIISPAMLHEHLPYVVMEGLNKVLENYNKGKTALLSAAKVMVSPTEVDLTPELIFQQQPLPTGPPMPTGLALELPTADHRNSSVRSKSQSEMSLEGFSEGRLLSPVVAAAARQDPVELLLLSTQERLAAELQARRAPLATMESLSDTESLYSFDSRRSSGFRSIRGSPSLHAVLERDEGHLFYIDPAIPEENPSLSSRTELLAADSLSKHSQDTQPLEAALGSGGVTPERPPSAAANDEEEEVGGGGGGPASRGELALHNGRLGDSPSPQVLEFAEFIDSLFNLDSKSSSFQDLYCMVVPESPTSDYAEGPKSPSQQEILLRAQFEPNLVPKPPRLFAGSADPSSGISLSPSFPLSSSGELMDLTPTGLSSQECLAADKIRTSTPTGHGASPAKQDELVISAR
pIC50 values, listed per item
Field pIC50 (float): negative decimal logarithm of the concentration in molar.

Solved entries:
1) CN(C)C(=O)n1nnc(CNC(=O)c2ccc(N=[N+]=[N-])c(I)c2)n1 | 5.36
2) CN(C)C(=O)n1nnnc1CNC(=O)c1cccc(-c2ccccc2)c1 | 6.47
3) CN(C)C(=O)n1nnnc1CNC(=O)CCCCCCCc1ccccc1 | 6.24
4) CN(C)C(=O)n1nnnc1CCCc1ccccc1 | 5.00
5) CN(C)C(=O)n1nnc(CCc2ccccc2)n1 | 6.22
6) CN(C)C(=O)n1nnc(CNC(=O)CCCCCCCc2ccccc2)n1 | 5.00
7) CN(C)C(=O)n1nnc(CNC(=O)CCCCCCc2ccccc2)n1 | 5.00
8) CN(C)C(=O)n1nnc(CCCc2ccccc2)n1 | 6.30

// lookup pIC50 for CN(C)C(=O)n1nnnc1CNC(=O)c1ccc(N=[N+]=[N-])c(I)c1
6.89

Follow-up item: CN(C)C(=O)n1nnnc1CCc1ccccc1
5.00
